Data provenance is patent US20080058263A1.

- measuredTarget: T1, VEGFR-2-Fc (UniProt P35968 20-322)
- T1 construct: domain: first 3 Ig domains; conditioned supernatant of 293T cells; also called VEGFR-2-Fc fusion protein; not shown: Fc fragment of the pIg vector
- T1 sequence (P35968 20-322): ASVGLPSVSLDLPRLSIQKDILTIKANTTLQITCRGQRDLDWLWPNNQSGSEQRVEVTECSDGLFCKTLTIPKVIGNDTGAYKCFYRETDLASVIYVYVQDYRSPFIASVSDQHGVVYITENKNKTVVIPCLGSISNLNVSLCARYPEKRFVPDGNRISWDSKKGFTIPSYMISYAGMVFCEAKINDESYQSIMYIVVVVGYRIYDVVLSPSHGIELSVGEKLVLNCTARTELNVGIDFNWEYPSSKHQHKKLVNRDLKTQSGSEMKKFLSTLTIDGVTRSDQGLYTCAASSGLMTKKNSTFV
- measurementProtocol: receptor-Fc IP
assayReadout: binding result

# example entries with known answers
1) 13-15 (ligand) GQNHHEVVKFMDVYQRSYCHPIETLVDIFQEYPDEIEYIFKPPCVSVYRCGGCCNSEGLQCVPTEESNITMQIMRITVPLSQGPKPVTISFANHTSCRCMSKLD = no binding
2) 61-13 (ligand) GQNHHEVVKFMDVYQRSYCHPREVCIDVGKEYPDEIEYIFKPSCVPLMRCGGCCNDEGLECVPTEESNITMQIMRITVPLSQGPKPVTISFANHTSCRCMSKLD = no binding
3) 21-14 (ligand) AHYNTEILKSIDNEWRKTQCMPREVCIDVGKEYPDEIEYIFKPSCVPLMRCGGCCNDEGLECMNTSTSYLSKTLFEITVPLSQGPKPVTISFANHTSCRCMSKLD = no binding
4) 53-5 (ligand) AHYNTEILKSIDNEWRKTQCMPIETLVDIFQEYPDEIEYIFKPPCVSVYRCGGCCNDEGLECVPTEESNITMQIMRIKPHQGQHIGEMSFANHTSCRCMSKLD = no binding
5) 22-10 (ligand) AHYNTEILKSIDNEWRKTQCMPREVCIDVGKEFGVATNTFFKPPCVSVYRCGGCCNDEGLECMNTSTSYLSKTLFEITVPLSQGPKPVTISFLQHNKCECRPKKD = binds
6) 52-3 (ligand) AHYNTEILKSIDNEWRKTQCMPIETLVDIFQEFGVATNTFFKPPCVSVYRCGGCCNSEGLQCVPTEESNITMQIMRIKPHQGQHIGEMSFLQHNKCECRPKKD = no binding

Request: Give a short answer stating reported binding result for 13-7 (ligand) GQNHHEVVKFMDVYQRSYCHPIETLVDIFQEYPDEIEYIFKPPCVSVYRCGGCCNSEGLQCVPTEESNITMQIMRIKPHQGQHIGEMSFANHTSCRCMSKLD .
Result: binds

Request: Give a short answer stating reported binding result for 32-11 (ligand) GQNHHEVVKSIDNEWRKTQCMPIETLVDIFQEFGVATNTFFKPPCVSVYRCGGCCNSEGLQCVPTEESNITMQIMRITVPLSQGPKPVTISFLQHNKCECRPKKD .
Result: no binding
